Assay: Half-life (wash-out consideration)
Settings: mouse, in vivo
half-life for assorted compounds
measure_name: half-life

>  <compound>
COc1ccc(C2CNC(=O)C2)cc1OC1CCCC1 (centres unmarked) [rolipram, reference compound]

>  <measured_value>
< 3 h

$$$$
>  <compound>
COc1ccc([C@H]2CNC(=O)[C@H](Cc3cccc(C)c3)C2)cc1OC1CCCC1 [HT0712]

>  <measured_value>
< 3 h

$$$$
